I'd be grateful if you could share measured pEC50 for these entries.
# experimental_details: Intrinsic activity at human melatonin MT2 receptor expressed in CHO cells assessed as [35S]GTPgammaS binding after 1 hr
# Assay type: functional, cell-based
The quantity pEC50 is defined as the negative base-10 logarithm of the molar concentration.

pEC50 recorded for this molecule, CC(=O)NCCc1c(-c2ccccc2)oc2ccc3c(c12)CCCO3 , is 10.15

Field pEC50 (entry CC(=O)NCCc1c(-c2cccc(CO)c2)oc2ccc3c(c12)CCCO3 ) reads 9.52

For reference, reported pEC50 for C=CCc1oc2ccc3c(c2c1CCNC(C)=O)CCCO3 stands at 10.10

Recorded pEC50 (molecule CC(=O)NCCc1coc2ccc3c(c12)CCCO3 ): 9.72

Lab note: measured pEC50 of C=Cc1oc2ccc3c(c2c1CCNC(C)=O)CCCO3 was 9.68

COc1ccc2occ(CCNC(C)=O)c2c1 yielded pEC50 of 9.15

* * *

# experimental_details: Intrinsic activity at human melatonin MT1 receptor expressed in CHO cells assessed as [35S]GTPgammaS binding after 1 hr relative to melatonin
# Type: functional
Assign Emax to each entry below.
# output: bare number, implied unit %

Measured Emax of S=C(NCCc1coc2ccc3c(c12)CCCO3)NC1CC1 : 42

// field: Emax; key: COc1ccc2occ(CCNC(C)=O)c2c1 ; value = 118

Recorded result, CC(=O)NCCc1c(-c2cccc(CO)c2)oc2ccc3c(c12)CCCO3 , Emax: 32

For this compound ( CC(=O)NCCc1c(-c2cccc(O)c2)oc2ccc3c(c12)CCCO3 ), measured Emax is 46

Recorded result, CC(=O)NCCc1c(-c2ccccc2)oc2ccc3c(c12)CCCO3 , Emax: 107

So for O=C(CI)NCCc1coc2ccc3c(c12)CCCO3 , the logged Emax turned out to be 121

Field Emax (entry COc1cccc(-c2oc3ccc4c(c3c2CCNC(C)=O)CCCO4)c1 ) reads 30

Input C=CCc1oc2ccc3c(c2c1CCNC(C)=O)CCCO3 . Output Emax: 104

The compound listed as C=CCC(=O)NCCc1coc2ccc3c(c12)CCCO3 shows Emax equal to 68

Looking up C=Cc1oc2ccc3c(c2c1CCNC(C)=O)CCCO3 , I see its Emax listed as 113

Briefly, Emax measured for COc1cccc(C(=O)c2cc3occ(CCNC(C)=O)c3c3c2OCCC3)c1 : 56

Short answer for C=CC(=O)NCCc1coc2ccc3c(c12)CCCO3 : Emax was 80

Entry C/C=C/C(=O)NCCc1coc2ccc3c(c12)CCCO3 , Emax reported as 92

Recorded result, CC(=O)NCCc1coc2ccc3c(c12)CCCO3 , Emax: 98

* * *

Please respond with reported Ki for every item in the list.
# experimental_details: Displacement of 2-[I]iodomelatonin from human melatonin MT2 receptor after 120 mins
Number in nM, nothing else.

Recorded Ki (compound CC(=O)N(C)CCc1coc2ccc3c(c12)CCCO3 ): 13

The compound CCCCNC(=O)NCCc1coc2ccc3c(c12)CCCO3 showed Ki equal to 23

// sample CC(=O)NCCc1c(C(=O)c2cccc(C(F)(F)F)c2)oc2ccc3c(c12)CCCO3 , its Ki was 2.6

Record S=C(NCCc1coc2ccc3c(c12)CCCO3)NC1CC1 , field Ki: 7.4

Short answer for C=CCC(=O)NCCc1coc2ccc3c(c12)CCCO3 : Ki was 0.08

Ki reported for this compound O=C(CI)NCCc1coc2ccc3c(c12)CCCO3 : 0.08

* * *

# experimental_details: Displacement of 2-[I]iodomelatonin from human melatonin MT2 receptor after 120 mins
pKi: −log10 of the molar value.
Label TRUE when pKi >= 9; otherwise FALSE.

State whether the measured pKi reaches 9, counting equality as reaching it, for COc1cccc(-c2oc3ccc4c(c3c2CCNC(C)=O)CCCO4)c1
TRUE

Can COc1cccc(C(=O)c2cc3occ(CCNC(C)=O)c3c3c2OCCC3)c1 be said to have pKi at or above 9?
FALSE

Does the molecule CC(=O)NCCc1coc2cc(C(=O)c3cccc(C(F)(F)F)c3)c3c(c12)CCCO3 have recorded pKi that is 9 or more?
FALSE

Is pKi at least 9? Consider C=Cc1oc2ccc3c(c2c1CCNC(C)=O)CCCO3
TRUE

Determine whether this molecule has pKi no lower than 9: CC(=O)NCCc1c(-c2cccc(O)c2)oc2ccc3c(c12)CCCO3
TRUE

API: above_or_equal(metric=pKi, cutoff=9) for item CC(=O)NCCc1c(-c2ccccc2)oc2ccc3c(c12)CCCO3
TRUE

# bool: pKi of CCCCNC(=S)NCCc1coc2ccc3c(c12)CCCO3 >= 9
FALSE

Kindly determine if pKi recorded for C=CC(=O)NCCc1coc2ccc3c(c12)CCCO3 is above or exactly 9.
TRUE

Threshold query (pKi >= 9) on CCCC(=O)c1oc2ccc3c(c2c1CCNC(C)=O)CCCO3
TRUE

Check if pKi >= 9 (inclusive). Item: C/C=C/C(=O)NCCc1coc2ccc3c(c12)CCCO3
FALSE

pKi >= 9 for COc1ccc(C(=O)c2cc3occ(CCNC(C)=O)c3c3c2OCCC3)cc1 ?
FALSE

Can CCCNC(=S)NCCc1coc2ccc3c(c12)CCCO3 be said to have pKi at or above 9?
FALSE

* * *

# experimental_details: Intrinsic activity at human melatonin MT2 receptor expressed in CHO cells assessed as [35S]GTPgammaS binding after 1 hr
# Type: functional, cell-based
endpoint: EC50 (nM)
Your answer should be a plain number; it is taken to be in nM.

Input C=CCC(=O)NCCc1coc2ccc3c(c12)CCCO3 . Output EC50: 1.5

Item: COc1cccc(C(=O)c2cc3occ(CCNC(C)=O)c3c3c2OCCC3)c1 | EC50: 149

// field: EC50; key: C=CC(=O)NCCc1coc2ccc3c(c12)CCCO3 ; value = 51

Notebook: CC(=O)NCCc1c(C(=O)c2cccc(C(F)(F)F)c2)oc2ccc3c(c12)CCCO3 , EC50 read as 16

Sample C/C=C/C(=O)NCCc1coc2ccc3c(c12)CCCO3 ; EC50 observed: 14

// EC50 value for COc1ccc2[nH]cc(CCNC(C)=O)c2c1 : 0.4

The molecule listed as O=C(CI)NCCc1coc2ccc3c(c12)CCCO3 shows EC50 equal to 0.1

Given item CC(=O)NCCc1c(-c2cccc(O)c2)oc2ccc3c(c12)CCCO3 , the value recorded as its EC50 is 0.21

According to the records, this molecule COc1cccc(-c2oc3ccc4c(c3c2CCNC(C)=O)CCCO4)c1 displays EC50 of 0.2

Record S=C(NCCc1coc2ccc3c(c12)CCCO3)NC1CC1 , field EC50: 38

* * *

# experimental_details: Intrinsic activity at human melatonin MT1 receptor expressed in CHO cells assessed as [35S]GTPgammaS binding after 1 hr
# Type: functional, cell-based
endpoint: pEC50
Would you please state pEC50, meaning minus log10 of the concentration in mol/L, as a bare number?

The recorded pEC50 for entry C=Cc1oc2ccc3c(c2c1CCNC(C)=O)CCCO3 equals 10.10

The compound identified as CC(=O)NCCc1c(-c2ccccc2)oc2ccc3c(c12)CCCO3 registered its pEC50 at 9.92

Recorded result, COc1ccc2occ(CCNC(C)=O)c2c1 , pEC50: 8.26

Consider COc1cccc(C(=O)c2cc3occ(CCNC(C)=O)c3c3c2OCCC3)c1 . Its measured pEC50 is 6.34

C=CCc1oc2ccc3c(c2c1CCNC(C)=O)CCCO3 yielded pEC50 of 9.82

So for S=C(NCCc1coc2ccc3c(c12)CCCO3)NC1CC1 , the logged pEC50 turned out to be 6.84

Record summary for CC(=O)NCCc1c(-c2cccc(O)c2)oc2ccc3c(c12)CCCO3 : reported pEC50 = 8.34

Memo: C/C=C/C(=O)NCCc1coc2ccc3c(c12)CCCO3 , reported pEC50: 7.21

Per the record, C=CCC(=O)NCCc1coc2ccc3c(c12)CCCO3 has pEC50 of 8.60

Measured pEC50, CC(=O)NCCc1c(-c2cccc(CO)c2)oc2ccc3c(c12)CCCO3 : 8.07

Short answer for CC(=O)NCCc1coc2ccc3c(c12)CCCO3 : pEC50 was 9.10

Lookup result for C=CC(=O)NCCc1coc2ccc3c(c12)CCCO3 ; measured pEC50: 7.89

According to the records, this compound COc1cccc(-c2oc3ccc4c(c3c2CCNC(C)=O)CCCO4)c1 displays pEC50 of 8.74

In plain terms, O=C(CI)NCCc1coc2ccc3c(c12)CCCO3 has a documented pEC50 of 9.70

Documented pEC50 of COc1ccc2[nH]cc(CCNC(C)=O)c2c1 [MELATONIN] : 8.77

* * *

For each record, write down the corresponding pKi.
# experimental_details: Displacement of 2-[I]iodomelatonin from human melatonin MT1 receptor after 120 mins
Please express pKi as -log10 of the molar concentration.

For CC(=O)N(C)CCc1coc2ccc3c(c12)CCCO3 the compound record lists pKi as 7.85

pKi in this record for COc1ccc2occ(CCNC(C)=O)c2c1 : 9.80

The compound listed as C/C=C/C(=O)NCCc1coc2ccc3c(c12)CCCO3 shows pKi equal to 8.89

Record summary for COc1cccc(-c2oc3ccc4c(c3c2CCNC(C)=O)CCCO4)c1 : reported pKi = 9.48

Value of pKi reported for the compound CCCNC(=S)NCCc1coc2ccc3c(c12)CCCO3 is 8.27

For this compound ( COc1ccccc1C(=O)c1oc2ccc3c(c2c1CCNC(C)=O)CCCO3 ), measured pKi is 7.28

# compound COc1ccccc1C(=O)c1cc2occ(CCNC(C)=O)c2c2c1OCCC2 ; its pKi = 6.08
